Hi there, I'd appreciate the recorded composite z-score for every entry that follows.
target: Dihydroorotate dehydrogenase (quinone), mitochondrial (Plasmodium falciparum (isolate 3D7)) (UniProt Q08210); assay: PfDHODH enzyme inhibitors, primary screen, biochemical, C-terminal His tag, absorbance 600 nm (AID 1175); conditions: DCIP absorbance 600 nm, higher = more signal, called active from +8 up or from −8 down;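 note: recombinant parasite enzyme with a five histidine tag at its C terminus; test concentration not given here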
Sequence (Q08210 whole entry, looked up): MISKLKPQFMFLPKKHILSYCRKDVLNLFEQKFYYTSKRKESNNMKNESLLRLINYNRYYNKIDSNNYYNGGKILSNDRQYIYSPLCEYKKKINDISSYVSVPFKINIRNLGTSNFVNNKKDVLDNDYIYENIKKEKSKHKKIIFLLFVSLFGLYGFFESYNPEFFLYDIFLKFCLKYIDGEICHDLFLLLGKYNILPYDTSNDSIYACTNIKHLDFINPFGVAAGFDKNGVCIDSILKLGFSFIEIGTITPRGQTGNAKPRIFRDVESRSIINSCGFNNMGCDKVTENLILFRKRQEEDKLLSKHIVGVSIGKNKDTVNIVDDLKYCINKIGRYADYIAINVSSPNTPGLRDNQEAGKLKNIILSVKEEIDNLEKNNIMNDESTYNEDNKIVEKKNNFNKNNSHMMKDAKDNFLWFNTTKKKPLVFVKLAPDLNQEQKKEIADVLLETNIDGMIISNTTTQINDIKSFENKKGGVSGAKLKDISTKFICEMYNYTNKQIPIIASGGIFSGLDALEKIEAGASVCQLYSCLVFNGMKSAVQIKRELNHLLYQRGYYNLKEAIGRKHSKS
Answers are plain numbers.

STRUCTURE SMILES STRING: C[C@H]1COC(=O)[C@H](Cc2ccccc2)NC(=O)[C@@H](C)COC(=O)[C@H](Cc2ccccc2)NC1=O
composite z-score: 0.063

STRUCTURE SMILES STRING: O=C1O[C@H](c2ccccc2)[C@H](c2ccccc2)N2[C@H]1[C@@H](C(=O)Nc1nc3ccccc3s1)[C@]1(C(=O)Nc3ccc(C#CC4(O)CCCCCC4)cc31)[C@H]2c1ccc(O)cc1
composite z-score: 0.0022

Consider the additional compound presented here.
What the record says about COC(=O)[C@@]1(Cc2ccccc2CN=[N+]=[N-])N=C(c2ccc(OCCCO)cc2)O[C@H]1c1ccccc1N=[N+]=[N-] : composite z-score is 3.12
